The origin of these recorded values is patent US12281162.

systemTested: T1, human G-protein-coupled receptor family C group 5 member D (GPRC5D) (human, UniProt Q9NZD1 1-345)
T1 construct: whole, on cells; also called human GPRC5D protein
T1 sequence (Q9NZD1 whole entry): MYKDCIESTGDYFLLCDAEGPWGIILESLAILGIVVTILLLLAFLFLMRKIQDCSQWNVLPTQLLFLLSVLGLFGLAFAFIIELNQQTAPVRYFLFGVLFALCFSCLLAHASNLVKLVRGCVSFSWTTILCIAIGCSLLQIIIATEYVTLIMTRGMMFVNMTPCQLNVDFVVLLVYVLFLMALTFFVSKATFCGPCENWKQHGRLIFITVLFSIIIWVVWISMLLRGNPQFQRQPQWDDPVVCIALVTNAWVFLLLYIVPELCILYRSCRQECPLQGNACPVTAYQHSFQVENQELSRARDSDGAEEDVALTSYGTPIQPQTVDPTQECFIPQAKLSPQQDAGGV
protocolNotes: FACS, CHO-K1/human GPRC5D
measureName: Span

INSERT INTO assay_data (binder, obsvalue) VALUES
  ('34-H1L1 (antibody, V domains shown, humanized 34D3H1, VH v1 x VL v1) VH: EVQLVESGGGLVKPGGSLRLSCAASGFTFSSYGMSWVRQAPGKGLEWVSTISSGGSYTYYPDSVKGRFTISRDNAKNSLYLQMNSLRAEDTAVYYCARQGGDAMDYWGQGTLVTVSS VL: DIQMTQSPSSLSASVGDRVTITCRASQSINNNLHWYQQKPGKAPKLLIYYASQSISGVPSRFSGSGSGTDFTLTISSLQPEDFATYYCQQSNSRLTFGGGTKVEIK', 119000);
